Please go through the items and note down their GI50.
system: A498; assay: NCI tumour cell line growth inhibition, 48 h
Activity calls are given as the source filed them. Rule as the data show it: active = GI50 up to about 1.1 µM and inactive = higher.

Asked: So what does the record say about GI50 for COc1ccc2c(-c3csc(-c4c[nH]c5ccccc45)n3)c[nH]c2c1 ?
Given back: 8.65 µM (inactive)

Asked: Moving on to the next compound: CCCCCCCCCCCCCCCCNc1ccn(C2CC(O)C(COC(c3ccccc3)(c3ccccc3)c3ccc(OC)cc3)O2)c(=O)n1 (centres undefined)
Given back: > 100 µM (inactive)

Asked: Moving on to the next compound: Cc1cccc2c1CC1(Cc3ccccc3C1=O)C2=O (centres undefined)
Given back: > 100 µM (inactive)

Asked: Moving on to the next compound: COc1ccc2oc(=N)c(C(=O)Nc3ccccc3)cc2c1
Given back: 17.1 µM (inactive)

Asked: Moving on to the next compound: CC(=O)O[C@H]1CC[C@@]2(C)C(=CC[C@@H]3[C@@H]2CC[C@]2(C)c4c(C)nn(-c5ccccc5)c4C[C@@H]32)C1
Given back: 24 µM (inactive)

Asked: Moving on to the next compound: CCCCCCCCCCCCCCCC(=O)OCC(C[As](=O)(O)O)OC(=O)CCCCCCCCCCCCCCC (centres undefined)
Given back: > 100 µM (inactive)

Asked: Moving on to the next compound: S=C(N/N=C(/c1ccccc1)c1ccccn1)Nc1ccccc1Cl
Given back: 1.13 µM (inactive)

Asked: Moving on to the next compound: CC(NC(=O)/C(=C/c1ccccc1O)NC(=O)c1ccccc1)C(=O)O (centres undefined)
Given back: > 100 µM (inactive)

Asked: Moving on to the next compound: CCOC(=O)NC(OCCN(C)C)(C(F)(F)F)C(F)(F)F
Given back: > 100 µM (inactive)

Asked: Moving on to the next compound: NC(=O)c1csc(C2(O)COC(CO)C2O)n1 (centres undefined)
Given back: > 100 µM (inactive)

Asked: Moving on to the next compound: Cc1csc2c(P(=O)(OC(C)C)OC(C)C)c(-c3ccccc3)cn12
Given back: 18.7 µM (inactive)

Asked: Moving on to the next compound: O=c1cc(CBr)c2ccc(O)cc2o1
Given back: 25.8 µM (inactive)

Asked: Moving on to the next compound: Cc1ccc([N+](=O)[O-])c2c(NCCCN(C)C)ccnc12
Given back: 61.4 µM (inactive)

Asked: Moving on to the next compound: O=c1n(-c2ccccc2)c(=O)n2n1C1CCC2CC1
Given back: > 100 µM (inactive)

Asked: Moving on to the next compound: O=C1CCc2ccc(O)c(c2)Oc2ccc(cc2)[C@@H]2O[C@@H]2CO1
Given back: 29 µM (inactive)

Asked: Moving on to the next compound: O=Cn1c2ccccc2c2ccccc21
Given back: > 100 µM (inactive)

Asked: Moving on to the next compound: COC(=O)C12OCC34C(CC5C(C)=C(O)C(=O)CC5(C)C3C(O)C1O)OC(=O)C(OC(=O)C=C(C)C)C24 (centres undefined)
Given back: > 500 µM (inactive)

Asked: Moving on to the next compound: Cc1cc(/N=C2\C=C(Nc3cc(C)on3)C(=O)c3ccccc32)no1
Given back: > 100 µM (inactive)

Asked: Moving on to the next compound: CSc1c(C)[n+]([O-])c2cc(Cl)c(Cl)cc2[n+]1[O-]
Given back: 21.6 µM (inactive)

Asked: Moving on to the next compound: COCC1OC(OC2OCC3OC4(OCC(O)(C(C)OC)C5OCOC54)OC3C2OC)C(OC)C(O)C1OC1OC(C)C(OC)C(OC2OC(C)C3OC4(CC(O)C(OC5CC(OC6CC(C)([N+](=O)[O-])C(OC)C(C)O6)C(OC(=O)c6c(C)c(Cl)c(O)c(Cl)c6OC)C(C)O5)C(C)O4)OC3(C)C2O)C1O (centres undefined)
Given back: > 100 µM (inactive)

Asked: Moving on to the next compound: COC(=O)[C@H]1COC(=S)N1C(=O)[C@@H](C)[C@H](O)C(C)C
Given back: > 100 µM (inactive)

Asked: Moving on to the next compound: COC(=O)c1nc(-c2nc(CCNC(=O)OC(C)(C)C)sc2Cl)sc1Cl
Given back: 94.6 µM (inactive)

Asked: Moving on to the next compound: COc1ccc(NC(/C(C(=O)c2ccccc2)=C(\O)C(=O)/C=C(\O)c2ccccc2)c2ccc(OC)cc2)cc1 (centres undefined)
Given back: 35.7 µM (inactive)

Asked: Moving on to the next compound: Cc1cn([C@H]2C[C@@H](N3C(=O)c4ccccc4C3=O)[C@@H](CO[Si](C)(C)C(C)(C)C)O2)c(=O)[nH]c1=O
Given back: > 100 µM (inactive)

Asked: Moving on to the next compound: C=C(CO)CC(O)c1ccccc1 (centres undefined)
Given back: > 100 µM (inactive)

Asked: Moving on to the next compound: C=C[C@]1(O[Si](C)(C)C)C[C@@]2(C(=O)OCC)C(O)C(=O)N3CCc4cc(OC)c(OC)cc4[C@]312 (some centres undefined)
Given back: 40.9 µM (inactive)

Asked: Moving on to the next compound: CC(C)(C)N/N=C(\C(=O)Nc1nnc(S)[nH]1)C1C(=O)Nc2ccccc2[S+]1[O-] (centres undefined)
Given back: > 100 µM (inactive)

Asked: Moving on to the next compound: CC1Cc2c(Br)nc(N)nc2NC1=O (centres undefined)
Given back: > 100 µM (inactive)

Asked: Moving on to the next compound: CC(C)(C)C(=O)CC1(O)C=C(O)C(O)(CC(=O)C(C)(C)C)O1 (centres undefined)
Given back: > 100 µM (inactive)

Asked: Moving on to the next compound: CC(C)N(C(=O)C12C3C4C5(C#N)C3C1(C#N)C5C42I)C(C)C (centres undefined)
Given back: > 100 µM (inactive)

Asked: Moving on to the next compound: O=C(OCC(OC(=O)c1ccccc1)C1CC(C2(O)CCCCC2)C(=O)O1)c1ccccc1 (centres undefined)
Given back: > 25 µM (inactive)

Asked: Moving on to the next compound: COc1ccccc1C1C(C(=O)Nc2ccccc2)=C(C)NC(C)=C1C(=O)Nc1ccccc1
Given back: 31.7 µM (inactive)

Asked: Moving on to the next compound: Cc1c(C(=O)CC(=O)C(=O)Nc2ccc(Cl)cc2)[n+]([O-])c2ccccc2[n+]1[O-]
Given back: > 100 µM (inactive)

Asked: Moving on to the next compound: COc1cc([C@@H]2c3cc4c(cc3[C@@H](OC3OC5COC(C)OC5C(O)C3O)[C@H]3COC(=O)[C@H]23)OCO4)cc(OC)c1O (some centres undefined)
Given back: 7.14 µM (inactive)

Asked: Moving on to the next compound: CN1CCN(C2=CC(=O)c3c(O)ccc(O)c3C2=O)CC1
Given back: 1.54 µM (inactive)

Asked: Moving on to the next compound: COC(=O)c1sc2c(c1C(=O)OC)/C(=N/C(C)(C)C)S/C2=N\C(C)(C)C
Given back: 17.8 µM (inactive)

Asked: Moving on to the next compound: CC1(C)CC(=O)C(C(c2cccc(O)c2O)C2C(=O)CC(C)(C)CC2=O)C(=O)C1
Given back: > 100 µM (inactive)

Asked: Moving on to the next compound: CN(C)CCNC(=O)c1cccc2c(NCCN(C)C)c3ccccc3nc12
Given back: 1.94 µM (inactive)

Asked: Moving on to the next compound: Nc1nc(-c2ccccc2/N=N/N2CCCC2)nc2ccccc12
Given back: 7.76 µM (inactive)
